What remaining activity at 1 µM was measured for each of the following?
STUDY TARGET: panel of 442 kinases (Homo sapiens)
Construct: purchased Ambit Biosciences (scanMAXX KINOMEscan)
PROTOCOL: biochemical
Assay type: binding
DETAILS: CDC2L1; 1 µM; read-out: % of control at 1 µM
Report as a plain number; the unit % is understood.

// remaining activity at 1 µM (panel of 442 kinases (Homo sapiens)) for Cn1c(=O)n(-c2ccc(C(C)(C)C#N)cc2)c2c3cc(-c4cnc5ccccc5c4)ccc3ncc21 [Dactolisib] = 100

Reading of remaining activity at 1 µM for COc1ncc(-c2ccc3nccc(-c4ccnnc4)c3c2)cc1NS(=O)(=O)c1ccc(F)cc1F [Omipalisib] with panel of 442 kinases (Homo sapiens): 96

Measured on panel of 442 kinases (Homo sapiens), Nc1cc(C(F)(F)F)c(-c2cc(N3CCOCC3)nc(N3CCOCC3)n2)cn1 [Buparlisib] has a documented remaining activity at 1 µM of 85

Param item: FC(F)c1nc2ccccc2n1-c1nc(N2CCOCC2)nc(N2CCOCC2)n1 [ZSTK474] ; param system: panel of 442 kinases (Homo sapiens); output remaining activity at 1 µM: 88

* * *

STUDY TARGET: panel of 442 kinases (Homo sapiens, UniProt Q86UX6)
Construct: purchased Ambit Biosciences (scanMAXX KINOMEscan)
Sequence (Q86UX6 whole entry): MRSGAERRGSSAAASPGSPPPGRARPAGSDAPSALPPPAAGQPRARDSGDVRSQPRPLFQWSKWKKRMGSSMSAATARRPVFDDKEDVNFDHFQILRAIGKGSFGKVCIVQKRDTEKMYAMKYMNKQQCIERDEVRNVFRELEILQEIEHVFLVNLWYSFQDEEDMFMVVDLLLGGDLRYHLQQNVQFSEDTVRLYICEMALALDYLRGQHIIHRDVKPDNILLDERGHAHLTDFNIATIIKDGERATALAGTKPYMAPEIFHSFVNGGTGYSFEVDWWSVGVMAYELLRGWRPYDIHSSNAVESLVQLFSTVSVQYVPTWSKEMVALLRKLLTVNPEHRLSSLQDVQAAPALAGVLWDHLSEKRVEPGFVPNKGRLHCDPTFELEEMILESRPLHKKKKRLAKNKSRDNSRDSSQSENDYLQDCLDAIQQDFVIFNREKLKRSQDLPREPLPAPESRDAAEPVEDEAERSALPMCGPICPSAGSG
PROTOCOL: biochemical
Type: binding
DETAILS: kinase YANK3; 1 µM; read-out: YANK3 (% of control at 1 µM)
MEASUREMENT LABEL: remaining activity at 1 µM (%)
Write the answer as a number in %, unit excluded.

// assay panel of 442 kinases (Homo sapiens, UniProt Q86UX6), entry COc1ncc(-c2ccc3nccc(-c4ccnnc4)c3c2)cc1NS(=O)(=O)c1ccc(F)cc1F , remaining activity at 1 µM value = 100

Item: FC(F)c1nc2ccccc2n1-c1nc(N2CCOCC2)nc(N2CCOCC2)n1 | System: panel of 442 kinases (Homo sapiens, UniProt Q86UX6) | remaining activity at 1 µM: 73

Test item Nc1cc(C(F)(F)F)c(-c2cc(N3CCOCC3)nc(N3CCOCC3)n2)cn1 ; panel of 442 kinases (Homo sapiens, UniProt Q86UX6); reported remaining activity at 1 µM was 94

Let me check: Cn1c(=O)n(-c2ccc(C(C)(C)C#N)cc2)c2c3cc(-c4cnc5ccccc5c4)ccc3ncc21 , system panel of 442 kinases (Homo sapiens, UniProt Q86UX6), measured remaining activity at 1 µM is 88

* * *

STUDY TARGET: CYP2C9 (Homo sapiens)
Construct: was evaluated in human liver microsomes incubated with SN32976; tissue Cyprotex (contract research organization); host or cells: human liver microsomes
Sequence (P11712 whole entry): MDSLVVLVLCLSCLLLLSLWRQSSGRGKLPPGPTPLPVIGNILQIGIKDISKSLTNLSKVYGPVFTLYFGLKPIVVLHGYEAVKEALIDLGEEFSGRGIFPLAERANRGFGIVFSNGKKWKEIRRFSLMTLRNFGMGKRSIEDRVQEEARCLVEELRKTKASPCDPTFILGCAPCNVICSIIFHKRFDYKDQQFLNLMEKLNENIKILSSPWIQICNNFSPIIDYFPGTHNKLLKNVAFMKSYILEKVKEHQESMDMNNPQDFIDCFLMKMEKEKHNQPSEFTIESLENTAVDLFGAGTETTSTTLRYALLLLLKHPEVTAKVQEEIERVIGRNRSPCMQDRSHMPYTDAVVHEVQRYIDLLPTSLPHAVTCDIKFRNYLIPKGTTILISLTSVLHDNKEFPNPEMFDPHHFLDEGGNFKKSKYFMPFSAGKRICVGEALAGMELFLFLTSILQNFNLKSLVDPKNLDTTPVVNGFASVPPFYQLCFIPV
PROTOCOL: Cytochrome P450 inhibition in human liver microsomes, CYP2C9
Format: in vitro ADME
DETAILS: mean ± SD, read-out: CYP inhibition 2C9 IC50
MEASUREMENT LABEL: IC50 (µM)
// note: answer is a bare numeric in µM

// recorded IC50 for COc1cccc2c1nc(C(F)F)n2-c1nc(N2CCOCC2)nc(N2CCN(S(=O)(=O)CCN(C)C)CC2)n1 : 20

* * *

STUDY TARGET: panel of 442 kinases (Homo sapiens, UniProt Q8N4C8)
Construct: purchased Ambit Biosciences (scanMAXX KINOMEscan)
Sequence (Q8N4C8 whole entry): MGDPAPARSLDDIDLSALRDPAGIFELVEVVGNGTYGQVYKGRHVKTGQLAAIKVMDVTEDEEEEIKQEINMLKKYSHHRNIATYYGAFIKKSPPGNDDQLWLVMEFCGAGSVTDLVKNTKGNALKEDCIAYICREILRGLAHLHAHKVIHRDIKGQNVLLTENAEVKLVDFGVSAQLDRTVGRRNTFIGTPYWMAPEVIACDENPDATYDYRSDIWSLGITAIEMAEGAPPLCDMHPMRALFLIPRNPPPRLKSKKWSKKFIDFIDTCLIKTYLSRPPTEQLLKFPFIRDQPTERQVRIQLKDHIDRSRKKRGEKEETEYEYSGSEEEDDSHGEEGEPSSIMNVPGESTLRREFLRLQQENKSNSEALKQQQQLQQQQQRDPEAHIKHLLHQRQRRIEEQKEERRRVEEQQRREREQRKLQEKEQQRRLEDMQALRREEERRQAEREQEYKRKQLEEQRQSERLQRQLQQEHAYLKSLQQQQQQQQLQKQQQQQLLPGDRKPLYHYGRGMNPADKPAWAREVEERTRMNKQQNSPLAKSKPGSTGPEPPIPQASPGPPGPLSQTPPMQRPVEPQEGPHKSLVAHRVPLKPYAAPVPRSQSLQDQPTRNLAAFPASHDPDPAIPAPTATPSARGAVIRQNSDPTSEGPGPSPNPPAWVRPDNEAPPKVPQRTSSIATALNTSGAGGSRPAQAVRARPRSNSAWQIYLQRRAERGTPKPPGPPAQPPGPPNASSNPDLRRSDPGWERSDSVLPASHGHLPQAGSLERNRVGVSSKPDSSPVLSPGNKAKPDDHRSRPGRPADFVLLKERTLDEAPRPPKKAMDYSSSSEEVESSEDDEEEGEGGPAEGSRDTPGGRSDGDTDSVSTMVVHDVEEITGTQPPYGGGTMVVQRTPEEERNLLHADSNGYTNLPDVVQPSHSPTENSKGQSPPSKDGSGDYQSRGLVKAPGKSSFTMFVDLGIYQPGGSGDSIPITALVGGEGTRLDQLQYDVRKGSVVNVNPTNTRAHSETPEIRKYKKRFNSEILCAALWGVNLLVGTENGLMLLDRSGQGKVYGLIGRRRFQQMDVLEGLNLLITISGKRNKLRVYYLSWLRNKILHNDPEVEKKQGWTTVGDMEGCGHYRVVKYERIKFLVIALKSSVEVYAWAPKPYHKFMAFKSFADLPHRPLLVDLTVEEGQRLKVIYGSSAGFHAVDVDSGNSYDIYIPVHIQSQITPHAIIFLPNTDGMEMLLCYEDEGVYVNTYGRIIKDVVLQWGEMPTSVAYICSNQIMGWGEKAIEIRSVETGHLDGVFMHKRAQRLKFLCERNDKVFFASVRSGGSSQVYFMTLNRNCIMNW
PROTOCOL: biochemical
Assay type: binding
DETAILS: kinase MINK; 1 µM; read-out: % of control at 1 µM
MEASUREMENT LABEL: remaining activity at 1 µM
Quick note: number first, unit second.

remaining activity at 1 µM reading for FC(F)c1nc2ccccc2n1-c1nc(N2CCOCC2)nc(N2CCOCC2)n1 [ZSTK474] : 100%

Cn1c(=O)n(-c2ccc(C(C)(C)C#N)cc2)c2c3cc(-c4cnc5ccccc5c4)ccc3ncc21 [Dactolisib] yielded remaining activity at 1 µM of 49%

Lookup result for COc1ncc(-c2ccc3nccc(-c4ccnnc4)c3c2)cc1NS(=O)(=O)c1ccc(F)cc1F [Omipalisib] ; measured remaining activity at 1 µM: 83%

# remaining activity at 1 µM of Nc1cc(C(F)(F)F)c(-c2cc(N3CCOCC3)nc(N3CCOCC3)n2)cn1 [Buparlisib] = 100%

* * *

STUDY TARGET: panel of 442 kinases (Homo sapiens)
Construct: purchased Ambit Biosciences (scanMAXX KINOMEscan)
PROTOCOL: biochemical
Format: binding
DETAILS: kinase SRPK3; 1 µM; read-out: SRPK3 (% of control at 1 µM)
MEASUREMENT LABEL: remaining activity at 1 µM (%)
# output: bare number, implied unit %

Entry Cn1c(=O)n(-c2ccc(C(C)(C)C#N)cc2)c2c3cc(-c4cnc5ccccc5c4)ccc3ncc21 ; assay system panel of 442 kinases (Homo sapiens); remaining activity at 1 µM recorded at 91

Lab entry: panel of 442 kinases (Homo sapiens) assay, compound FC(F)c1nc2ccccc2n1-c1nc(N2CCOCC2)nc(N2CCOCC2)n1 , remaining activity at 1 µM = 100

Test item COc1ncc(-c2ccc3nccc(-c4ccnnc4)c3c2)cc1NS(=O)(=O)c1ccc(F)cc1F ; panel of 442 kinases (Homo sapiens); reported remaining activity at 1 µM was 100

Observed remaining activity at 1 µM, panel of 442 kinases (Homo sapiens), Nc1cc(C(F)(F)F)c(-c2cc(N3CCOCC3)nc(N3CCOCC3)n2)cn1 : 100

* * *

STUDY TARGET: panel of 442 kinases (Homo sapiens)
Construct: purchased Ambit Biosciences (scanMAXX KINOMEscan)
PROTOCOL: biochemical
Format: binding
DETAILS: kinase VEGFR2; 1 µM; read-out: VEGFR2 (% of control at 1 µM)
Kindly supply the reported remaining activity at 1 µM values for the records listed here.
All answers are understood in %, so give the number only.

Looking up FC(F)c1nc2ccccc2n1-c1nc(N2CCOCC2)nc(N2CCOCC2)n1 , I see its remaining activity at 1 µM listed as 100

Form: compound = Cn1c(=O)n(-c2ccc(C(C)(C)C#N)cc2)c2c3cc(-c4cnc5ccccc5c4)ccc3ncc21 ; remaining activity at 1 µM = 100

Documented remaining activity at 1 µM of Nc1cc(C(F)(F)F)c(-c2cc(N3CCOCC3)nc(N3CCOCC3)n2)cn1 : 87

Entry COc1ncc(-c2ccc3nccc(-c4ccnnc4)c3c2)cc1NS(=O)(=O)c1ccc(F)cc1F — recorded remaining activity at 1 µM = 78

* * *

STUDY TARGET: panel of 442 kinases (Homo sapiens, UniProt Q92630)
Construct: purchased Ambit Biosciences (scanMAXX KINOMEscan)
Sequence (Q92630 whole entry): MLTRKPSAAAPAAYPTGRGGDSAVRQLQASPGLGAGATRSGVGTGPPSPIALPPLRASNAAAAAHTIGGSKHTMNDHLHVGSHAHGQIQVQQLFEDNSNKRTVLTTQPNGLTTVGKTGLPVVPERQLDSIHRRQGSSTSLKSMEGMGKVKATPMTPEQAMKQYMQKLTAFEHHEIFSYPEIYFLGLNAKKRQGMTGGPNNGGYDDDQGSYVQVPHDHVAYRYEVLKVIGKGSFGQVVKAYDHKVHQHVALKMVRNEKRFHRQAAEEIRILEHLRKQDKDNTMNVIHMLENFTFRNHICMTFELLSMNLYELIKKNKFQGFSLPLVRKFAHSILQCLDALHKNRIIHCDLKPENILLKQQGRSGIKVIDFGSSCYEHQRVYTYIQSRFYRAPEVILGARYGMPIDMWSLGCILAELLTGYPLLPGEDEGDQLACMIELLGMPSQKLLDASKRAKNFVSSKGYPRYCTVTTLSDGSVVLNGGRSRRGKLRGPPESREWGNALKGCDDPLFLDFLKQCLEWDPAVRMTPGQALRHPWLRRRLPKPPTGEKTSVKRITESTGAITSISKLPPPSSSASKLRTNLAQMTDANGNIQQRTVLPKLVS
PROTOCOL: biochemical
Type: binding
DETAILS: DYRK2; 1 µM; read-out: % of control at 1 µM
MEASUREMENT LABEL: remaining activity at 1 µM
Be sure to follow the number with its unit.

The measured remaining activity at 1 µM associated with COc1ncc(-c2ccc3nccc(-c4ccnnc4)c3c2)cc1NS(=O)(=O)c1ccc(F)cc1F reads 88%

Reported remaining activity at 1 µM of Cn1c(=O)n(-c2ccc(C(C)(C)C#N)cc2)c2c3cc(-c4cnc5ccccc5c4)ccc3ncc21 : 67%

Entry Nc1cc(C(F)(F)F)c(-c2cc(N3CCOCC3)nc(N3CCOCC3)n2)cn1 — recorded remaining activity at 1 µM = 80%

Summary for this molecule, FC(F)c1nc2ccccc2n1-c1nc(N2CCOCC2)nc(N2CCOCC2)n1 : remaining activity at 1 µM is 78%

* * *

STUDY TARGET: panel of 442 kinases (Homo sapiens)
Construct: purchased Ambit Biosciences (scanMAXX KINOMEscan)
PROTOCOL: biochemical
Type: binding
DETAILS: ACVR2A; 1 µM; read-out: % of control at 1 µM
Could you please report measured remaining activity at 1 µM for the items listed next?
// note: answer is a bare numeric in %

GET /value?item= Cn1c(=O)n(-c2ccc(C(C)(C)C#N)cc2)c2c3cc(-c4cnc5ccccc5c4)ccc3ncc21 &field=remaining activity at 1 µM returns 89

# molecule FC(F)c1nc2ccccc2n1-c1nc(N2CCOCC2)nc(N2CCOCC2)n1 ; its remaining activity at 1 µM = 100

# remaining activity at 1 µM (molecule: COc1ncc(-c2ccc3nccc(-c4ccnnc4)c3c2)cc1NS(=O)(=O)c1ccc(F)cc1F ) is 100

The recorded remaining activity at 1 µM for entry Nc1cc(C(F)(F)F)c(-c2cc(N3CCOCC3)nc(N3CCOCC3)n2)cn1 equals 100

* * *

STUDY TARGET: panel of 442 kinases (Homo sapiens, UniProt P17612)
Construct: purchased Ambit Biosciences (scanMAXX KINOMEscan)
PROTOCOL: biochemical
Format: binding
DETAILS: kinase PKAC-alpha; 1 µM; read-out: % of control at 1 µM
MEASUREMENT LABEL: remaining activity at 1 µM (%)
State just the number; it will be interpreted in %.

Record COc1ncc(-c2ccc3nccc(-c4ccnnc4)c3c2)cc1NS(=O)(=O)c1ccc(F)cc1F , field remaining activity at 1 µM: 84

# remaining activity at 1 µM (compound: Cn1c(=O)n(-c2ccc(C(C)(C)C#N)cc2)c2c3cc(-c4cnc5ccccc5c4)ccc3ncc21 ) is 100

The value of remaining activity at 1 µM measured for the compound Nc1cc(C(F)(F)F)c(-c2cc(N3CCOCC3)nc(N3CCOCC3)n2)cn1 turned out to be 86

The measured remaining activity at 1 µM associated with FC(F)c1nc2ccccc2n1-c1nc(N2CCOCC2)nc(N2CCOCC2)n1 reads 100
